ASSAY_COMMENT: Toxicity in C57Bl/6 mouse assessed as change in body weight at 100 mg/kg, ip measured after 30 days (reference value: 103 +/- 12 %)
Type: organism-based
CONDITION_SUMMARY: in vivo, 720 h, time 30 day
Hi there, I'd appreciate the recorded Activity for every entry that follows.
Numbers only, in %.

# MOLECULE, ASSAY_RESULT
measured = [
    ("COc1cccc(OC)c1OCC(O)CN1CCN(CCO)CC1 (stereo not given)", 102),
    ("COc1cc([N+](=O)[O-])ccc1OCC(O)CN1CCN(CCO)CC1 (stereo not given)", 103),
    ("C=CCc1ccc(OCC(O)CN2CCN(CCO)CC2)c(OC)c1 (stereo not given)", 105),
    ("Cc1ccccc1OCC(O)CN1CCN(CCO)CC1 (stereo not given)", 104),
]

Let us move to another entry and its Activity.
Can you share its Activity? I mean this molecule: COc1ccccc1OCC(O)CN1CCN(CCO)CC1 (stereo not given)
102

====

System: A549
ASSAY_COMMENT: Cytotoxicity against human A549 cells assessed as reduction in cell viability incubated for 24 hrs by MTT assay
Assay type: functional, cell-based
CONDITION_SUMMARY: A549, 24 h
QUANTITY: IC50 (mM)
Answers are plain numbers, in mM.

A selection of reference data follows.
# MOLECULE, IC50 [mM]
rows = [
    ("OCCN1CCN(CC(O)COc2cccc3ccccc23)CC1 (stereo not given)", 0.42),
    ("OCCN1CCN(CC(O)COc2ccc3ccccc3c2)CC1 (stereo not given)", 0.31),
    ("Cc1ccccc1OCC(O)CN1CCN(CCO)CC1 (stereo not given)", 3.4),
]

Hey, can you go through the list below and give me IC50 for every item?
1. C=CCc1ccc(OCC(O)CN2CCN(CCO)CC2)c(OC)c1 (stereo not given)
2. COc1cccc(OC)c1OCC(O)CN1CCN(CCO)CC1 (stereo not given)
3. Cc1ccc(OCC(O)CN2CCN(CCO)CC2)cc1 (stereo not given)

1.12
7.81
2.43

Hey, can you go through the list below and give me IC50 for every item?
1. COc1cc([N+](=O)[O-])ccc1OCC(O)CN1CCN(CCO)CC1 (stereo not given)
2. OCCN1CCN(CC(O)COc2ccccc2)CC1 (stereo not given)
3. COc1ccccc1OCC(O)CN1CCN(CCO)CC1 (stereo not given)

4.45
5.78
9.27

Can you share its IC50? I mean this molecule: Cc1ccc(C(C)C)c(OCC(O)CN2CCN(CCO)CC2)c1 (stereo not given)
0.36

====

Hi there, I'd appreciate the recorded viability at 100 µM for every entry that follows.
Tested on: MOLT-4
ASSAY_COMMENT: Radioprotective activity against gamma irradiation-induced apoptosis in human MOLT-4 cells assessed as viable cells at 100 uM pretreated with compound for 1 hr followed by gamma irradiation and measured after 24 hrs by annexinV/propidium iodide staining based flow cytometry (reference value: 40 %)
Type: functional
CONDITION_SUMMARY: MOLT-4, light or radiation study, time 25 hrs, read-out: Activity
Give bare numbers, in %.

A selection of reference data follows.
# COMPOUND, SUBJECT_OF_TEST, ASSAY_RESULT
records = [
    ("COc1ccccc1OCC(O)CN1CCN(CCO)CC1 (stereo not given)", "MOLT-4", 59),
    ("OCCN1CCN(CC(O)COc2ccccc2)CC1 (stereo not given)", "MOLT-4", 57),
    ("Cc1ccc(OCC(O)CN2CCN(CCO)CC2)cc1 (stereo not given)", "MOLT-4", 58),
    ("COc1cccc(OC)c1OCC(O)CN1CCN(CCO)CC1 (stereo not given)", "MOLT-4", 61),
    ("Cc1ccccc1OCC(O)CN1CCN(CCO)CC1 (stereo not given)", "MOLT-4", 62),
]

Hey, can you go through the list below and give me viability at 100 µM for every item?
1. OCCN1CCN(CC(O)COc2cccc3ccccc23)CC1 (stereo not given)
2. Cc1ccc(C(C)C)c(OCC(O)CN2CCN(CCO)CC2)c1 (stereo not given)
3. C=CCc1ccc(OCC(O)CN2CCN(CCO)CC2)c(OC)c1 (stereo not given)
4. COc1cc([N+](=O)[O-])ccc1OCC(O)CN1CCN(CCO)CC1 (stereo not given)
5. OCCN1CCN(CC(O)COc2ccc3ccccc3c2)CC1 (stereo not given)

1. 59
2. 58
3. 52
4. 59
5. 65
